B1: Caulobacter ParB omega fusion; a variant is named by its letters at X, in order, B8GW30 (parent)
chain: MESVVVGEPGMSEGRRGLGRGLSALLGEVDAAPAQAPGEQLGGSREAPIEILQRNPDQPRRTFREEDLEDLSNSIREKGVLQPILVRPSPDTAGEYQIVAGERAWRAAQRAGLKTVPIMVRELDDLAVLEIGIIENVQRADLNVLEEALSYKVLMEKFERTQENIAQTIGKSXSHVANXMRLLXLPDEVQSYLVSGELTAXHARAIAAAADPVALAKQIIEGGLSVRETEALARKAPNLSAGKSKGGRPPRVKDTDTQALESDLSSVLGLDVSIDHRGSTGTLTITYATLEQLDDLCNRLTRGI

Variants of: B1
Test: one-hybrid fitness for binding NBS DNA (the Noc-binding site; scaled: cognate 1, non-cognate 0); higher = stronger binding
Settings: with NBS DNA site
Whole data set: some 81,000 sequences, median “one-hybrid fitness for binding NBS DNA” near -0.1, cut for the highest 2% near 0.36. For the sample, the highest values were picked, then their nearest neighbours and some sequences at random.
Measured Quantity: one-hybrid fitness for binding NBS DNA

Some entries whose results are on file:
{"Variant Designation": "RMCT", "Measured Quantity": "one-hybrid fitness for binding NBS DNA", "Result Value": 0.366}
{"Variant Designation": "RRWC", "Measured Quantity": "one-hybrid fitness for binding NBS DNA", "Result Value": 0.393}
{"Variant Designation": "NMKR", "Measured Quantity": "one-hybrid fitness for binding NBS DNA", "Result Value": 0.201}
{"Variant Designation": "NFKR", "Measured Quantity": "one-hybrid fitness for binding NBS DNA", "Result Value": "≤ 0.2"}
{"Variant Designation": "WGHS", "Measured Quantity": "one-hybrid fitness for binding NBS DNA", "Result Value": "≤ 0.2"}
{"Variant Designation": "HDFR", "Measured Quantity": "one-hybrid fitness for binding NBS DNA", "Result Value": "≤ 0.2"}
{"Variant Designation": "QIKI", "Measured Quantity": "one-hybrid fitness for binding NBS DNA", "Result Value": "≤ 0.2"}
{"Variant Designation": "RQNP", "Measured Quantity": "one-hybrid fitness for binding NBS DNA", "Result Value": "≤ 0.2"}
{"Variant Designation": "KYYR", "Measured Quantity": "one-hybrid fitness for binding NBS DNA", "Result Value": "≤ 0.2"}
{"Variant Designation": "QSGV", "Measured Quantity": "one-hybrid fitness for binding NBS DNA", "Result Value": "≤ 0.2"}

Lab note: `RQIE` gave one-hybrid fitness for binding NBS DNA of ≤ 0.2

Lab note: `QKRV` gave one-hybrid fitness for binding NBS DNA of 0.41

Lab note: `QTEH` gave one-hybrid fitness for binding NBS DNA of ≤ 0.2

Lab note: `VQTI` gave one-hybrid fitness for binding NBS DNA of ≤ 0.2

Lab note: `RQDT` gave one-hybrid fitness for binding NBS DNA of 0.268

Lab note: `TCAG` gave one-hybrid fitness for binding NBS DNA of ≤ 0.2

Lab note: `MVES` gave one-hybrid fitness for binding NBS DNA of ≤ 0.2

Lab note: `QTYV` gave one-hybrid fitness for binding NBS DNA of ≤ 0.2
